biological target: EPHB3 (human) (UniProt P54753); experiment: KINOMEscan competition binding; settings: compound 10.0 µM
Sequence (P54753 whole entry, looked up): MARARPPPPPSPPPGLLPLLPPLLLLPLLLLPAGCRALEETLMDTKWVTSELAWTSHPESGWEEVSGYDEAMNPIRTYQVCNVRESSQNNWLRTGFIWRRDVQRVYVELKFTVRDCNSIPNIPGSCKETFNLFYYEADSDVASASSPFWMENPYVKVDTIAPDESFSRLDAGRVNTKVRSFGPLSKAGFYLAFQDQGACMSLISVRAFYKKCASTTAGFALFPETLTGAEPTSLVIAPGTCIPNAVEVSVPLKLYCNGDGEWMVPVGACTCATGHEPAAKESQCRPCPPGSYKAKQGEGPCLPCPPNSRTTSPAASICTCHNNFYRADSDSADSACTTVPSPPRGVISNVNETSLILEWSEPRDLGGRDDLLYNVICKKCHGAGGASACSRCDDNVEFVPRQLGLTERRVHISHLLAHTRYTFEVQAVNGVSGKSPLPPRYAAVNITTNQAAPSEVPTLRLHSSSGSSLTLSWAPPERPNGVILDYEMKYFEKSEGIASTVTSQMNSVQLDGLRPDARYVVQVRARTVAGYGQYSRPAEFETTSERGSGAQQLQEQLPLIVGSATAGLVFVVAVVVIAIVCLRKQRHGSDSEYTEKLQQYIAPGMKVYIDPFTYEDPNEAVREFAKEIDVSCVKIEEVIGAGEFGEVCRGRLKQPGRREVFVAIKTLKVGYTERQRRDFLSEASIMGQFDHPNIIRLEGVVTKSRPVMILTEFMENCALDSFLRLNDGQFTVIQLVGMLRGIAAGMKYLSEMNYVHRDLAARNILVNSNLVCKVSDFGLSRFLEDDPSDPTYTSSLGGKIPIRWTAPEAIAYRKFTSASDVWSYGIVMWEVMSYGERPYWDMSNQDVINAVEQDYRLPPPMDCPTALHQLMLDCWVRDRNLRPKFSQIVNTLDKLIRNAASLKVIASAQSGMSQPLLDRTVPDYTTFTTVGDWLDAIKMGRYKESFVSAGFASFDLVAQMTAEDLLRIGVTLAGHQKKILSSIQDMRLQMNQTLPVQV
endpointLabel: kinase still bound, per cent of control (%)
Reply numerically in %, unit not repeated.

Problem: # lookup: kinase still bound, per cent of control of COc1ccc(N(C(=O)Oc2cc(C(=O)Nc3cccc(C(F)(F)F)c3)ccc2C)c2ccnc(Nc3ccc(N4CCN(C)CC4)cc3)n2)c(OC)c1
Solution: 0

Problem: # lookup: kinase still bound, per cent of control of O=c1[nH]c2ccccc2n1C1CCN(Cc2ccc(-c3nc4cc5[nH]cnc5cc4nc3-c3ccccc3)cc2)CC1
Solution: 100

Problem: # lookup: kinase still bound, per cent of control of COc1cc(C)c(Sc2cnc(NC(=O)c3ccc(CNC(C)C(C)C)cc3)s2)cc1C(=O)N1CCN(C(C)=O)CC1 (stereo not drawn)
Solution: 100

Problem: # lookup: kinase still bound, per cent of control of N#Cc1cc(-c2ccnc(Nc3ccc(-n4cnc(-c5cccnc5)n4)cc3)n2)cc(N2CCOCC2)c1
Solution: 88

Problem: # lookup: kinase still bound, per cent of control of CC(=O)c1c(C)c2cnc(Nc3ccc(N4CCNCC4)cn3)nc2n(C2CCCC2)c1=O
Solution: 91

Problem: # lookup: kinase still bound, per cent of control of CCN1CCN(Cc2ccc(NC(=O)c3ccc(C)c(/C=C/c4cnc5[nH]ccc5c4OC)c3)cc2C(F)(F)F)CC1
Solution: 4.7

Problem: # lookup: kinase still bound, per cent of control of Cc1cn(-c2cc(C(=O)Nc3ccc(C)c(NC(=O)c4ccno4)c3)cc(C(F)(F)F)c2)cn1
Solution: 27

Problem: # lookup: kinase still bound, per cent of control of CCCS(=O)(=O)Nc1ccc(F)c(C(=O)c2c[nH]c3ncc(Cl)cc23)c1F
Solution: 100

====

target: UniProtKB Q8WTQ7; assay: KINOMEscan competition binding; conditions: compound 10.0 µM
Sequence (Q8WTQ7 whole entry, looked up): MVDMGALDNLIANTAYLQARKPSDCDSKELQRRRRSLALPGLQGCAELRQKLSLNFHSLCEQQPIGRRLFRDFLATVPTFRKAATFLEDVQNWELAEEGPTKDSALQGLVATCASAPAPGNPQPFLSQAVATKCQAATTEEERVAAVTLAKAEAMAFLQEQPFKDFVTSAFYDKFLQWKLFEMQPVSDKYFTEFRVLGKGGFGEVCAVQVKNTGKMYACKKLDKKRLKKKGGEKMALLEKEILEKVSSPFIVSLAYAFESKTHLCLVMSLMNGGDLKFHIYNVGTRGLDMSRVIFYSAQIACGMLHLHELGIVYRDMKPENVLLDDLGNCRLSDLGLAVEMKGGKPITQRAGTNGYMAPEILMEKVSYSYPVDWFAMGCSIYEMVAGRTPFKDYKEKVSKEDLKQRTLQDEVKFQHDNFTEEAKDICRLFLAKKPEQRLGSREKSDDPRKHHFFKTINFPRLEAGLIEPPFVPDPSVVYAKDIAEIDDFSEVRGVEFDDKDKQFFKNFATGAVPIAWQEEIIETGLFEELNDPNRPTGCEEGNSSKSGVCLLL
Returns: string. Value is Satisfied if measured kinase still bound, per cent of control is below 80%, and Not satisfied if it is greater than or equal to it.

Problem: Is it true that kinase still bound, per cent of control reported for CC(=O)c1c(C)c2cnc(Nc3ccc(N4CCNCC4)cn3)nc2n(C2CCCC2)c1=O is less than 80%?
Solution: Satisfied

Problem: Is it true that kinase still bound, per cent of control reported for Cc1cn(-c2cc(C(=O)Nc3ccc(C)c(NC(=O)c4ccno4)c3)cc(C(F)(F)F)c2)cn1 is less than 80%?
Solution: Not satisfied

Problem: Is it true that kinase still bound, per cent of control reported for CCCS(=O)(=O)Nc1ccc(F)c(C(=O)c2c[nH]c3ncc(Cl)cc23)c1F is less than 80%?
Solution: Satisfied

Problem: Is it true that kinase still bound, per cent of control reported for O=c1[nH]c2ccccc2n1C1CCN(Cc2ccc(-c3nc4cc5[nH]cnc5cc4nc3-c3ccccc3)cc2)CC1 is less than 80%?
Solution: Not satisfied

Problem: Is it true that kinase still bound, per cent of control reported for CCc1nc(-c2cccc(C)c2)c(-c2ccnc(NC(=O)c3ccccc3)c2)s1 is less than 80%?
Solution: Not satisfied

Problem: Is it true that kinase still bound, per cent of control reported for N#C/C(=C1/Nc2ccccc2S1)c1ccnc(NCCc2cccnc2)n1 is less than 80%?
Solution: Satisfied

Problem: Is it true that kinase still bound, per cent of control reported for CC1=C(C(=O)Nc2cc3cn[nH]c3cc2F)C(c2ccc(C(F)(F)F)cc2)CC(=O)N1 (centres undefined) is less than 80%?
Solution: Satisfied

Problem: Is it true that kinase still bound, per cent of control reported for COc1cc2ncnc(Nc3cccc(Cl)c3)c2cc1OC is less than 80%?
Solution: Satisfied

Problem: Is it true that kinase still bound, per cent of control reported for CNC(=O)Nc1ccc(-c2nc(N3CC4CCC(C3)O4)c3cnn(C4CCC5(CC4)OCCO5)c3n2)cc1 is less than 80%?
Solution: Not satisfied

====

molecular target: EPHA3 (human) (UniProt P29320); test: KINOMEscan competition binding; details: compound 10.0 µM
Sequence (P29320 whole entry, looked up): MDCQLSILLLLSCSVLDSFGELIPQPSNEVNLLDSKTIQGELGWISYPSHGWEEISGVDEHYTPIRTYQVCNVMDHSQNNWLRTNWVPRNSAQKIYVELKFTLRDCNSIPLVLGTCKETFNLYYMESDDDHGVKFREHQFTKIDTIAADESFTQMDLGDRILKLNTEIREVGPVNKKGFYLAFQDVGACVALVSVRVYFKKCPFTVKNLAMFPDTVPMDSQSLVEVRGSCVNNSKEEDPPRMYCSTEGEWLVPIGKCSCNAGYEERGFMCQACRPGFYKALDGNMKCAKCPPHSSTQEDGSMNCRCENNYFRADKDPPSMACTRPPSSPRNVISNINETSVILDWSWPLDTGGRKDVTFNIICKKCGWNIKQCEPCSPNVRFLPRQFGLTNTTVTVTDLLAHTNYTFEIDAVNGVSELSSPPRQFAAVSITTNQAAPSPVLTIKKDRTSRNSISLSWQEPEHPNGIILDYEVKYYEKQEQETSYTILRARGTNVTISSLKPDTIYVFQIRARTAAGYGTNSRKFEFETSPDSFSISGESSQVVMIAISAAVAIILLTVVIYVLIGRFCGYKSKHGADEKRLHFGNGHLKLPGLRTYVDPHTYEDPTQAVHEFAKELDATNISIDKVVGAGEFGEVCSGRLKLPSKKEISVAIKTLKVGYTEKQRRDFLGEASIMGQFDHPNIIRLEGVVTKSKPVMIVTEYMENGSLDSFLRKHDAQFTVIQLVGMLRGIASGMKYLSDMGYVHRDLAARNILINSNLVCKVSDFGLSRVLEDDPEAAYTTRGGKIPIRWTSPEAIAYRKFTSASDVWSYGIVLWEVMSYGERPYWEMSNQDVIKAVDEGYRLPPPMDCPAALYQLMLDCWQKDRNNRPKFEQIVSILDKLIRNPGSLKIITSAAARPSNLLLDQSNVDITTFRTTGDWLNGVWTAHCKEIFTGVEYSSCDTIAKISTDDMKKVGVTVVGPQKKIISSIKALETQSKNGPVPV
Returns: string. Value is Satisfied if measured kinase still bound, per cent of control is below 70%, and Not satisfied if it is greater than or equal to it.

Problem: Is it true that kinase still bound, per cent of control reported for CC1=C(C(=O)Nc2cc3cn[nH]c3cc2F)C(c2ccc(C(F)(F)F)cc2)CC(=O)N1 (stereo not drawn) is less than 70%?
Solution: Not satisfied

Problem: Is it true that kinase still bound, per cent of control reported for COc1cc(N2CCC(C(N)=O)CC2)ccc1Nc1nc(N)c(Cl)c(Nc2ccccc2S(=O)(=O)C(C)C)n1 is less than 70%?
Solution: Not satisfied

Problem: Is it true that kinase still bound, per cent of control reported for COc1ccc(N(C(=O)Oc2cc(C(=O)Nc3cccc(C(F)(F)F)c3)ccc2C)c2ccnc(Nc3ccc(N4CCN(C)CC4)cc3)n2)c(OC)c1 is less than 70%?
Solution: Satisfied

Problem: Is it true that kinase still bound, per cent of control reported for CC(=O)c1c(C)c2cnc(Nc3ccc(N4CCNCC4)cn3)nc2n(C2CCCC2)c1=O is less than 70%?
Solution: Satisfied

Problem: Is it true that kinase still bound, per cent of control reported for N#Cc1cc(-c2ccnc(Nc3ccc(-n4cnc(-c5cccnc5)n4)cc3)n2)cc(N2CCOCC2)c1 is less than 70%?
Solution: Satisfied

Problem: Is it true that kinase still bound, per cent of control reported for CCOc1cc(N2CCC(O)CC2)ccc1Nc1ncc2c(n1)N(C)c1ccccc1C(=O)N2C is less than 70%?
Solution: Not satisfied

Problem: Is it true that kinase still bound, per cent of control reported for COc1cc2c(Nc3ccc(NC(=O)c4ccccc4)cc3)ncnc2cc1OCCCN1CCOCC1 is less than 70%?
Solution: Satisfied

====

Please provide measured kinase still bound, per cent of control for the entries that follow.
target: FER (human); test: KINOMEscan competition binding; details: compound 10.0 µM
Reply numerically in %, unit not repeated.

Problem: # lookup: kinase still bound, per cent of control of COc1cc2ncnc(Nc3cccc(Cl)c3)c2cc1OC
Solution: 82

Problem: # lookup: kinase still bound, per cent of control of COc1cc(C)c(Sc2cnc(NC(=O)c3ccc(CNC(C)C(C)C)cc3)s2)cc1C(=O)N1CCN(C(C)=O)CC1 (centres undefined)
Solution: 15

Problem: # lookup: kinase still bound, per cent of control of CCN(CCO)CCCOc1ccc2c(Nc3cc(CC(=O)Nc4cccc(F)c4)[nH]n3)ncnc2c1
Solution: 100

Problem: # lookup: kinase still bound, per cent of control of COc1cc(N2CCC(C(N)=O)CC2)ccc1Nc1nc(N)c(Cl)c(Nc2ccccc2S(=O)(=O)C(C)C)n1
Solution: 0.6

Problem: # lookup: kinase still bound, per cent of control of CNC(=O)Nc1ccc(-c2nc(N3CC4CCC(C3)O4)c3cnn(C4CCC5(CC4)OCCO5)c3n2)cc1
Solution: 100

Problem: # lookup: kinase still bound, per cent of control of COc1cc2c(Nc3ccc(NC(=O)c4ccccc4)cc3)ncnc2cc1OCCCN1CCOCC1
Solution: 65

Problem: # lookup: kinase still bound, per cent of control of O=c1[nH]c2ccccc2n1C1CCN(Cc2ccc(-c3nc4cc5[nH]cnc5cc4nc3-c3ccccc3)cc2)CC1
Solution: 83

Problem: # lookup: kinase still bound, per cent of control of Cc1cn(-c2cc(C(=O)Nc3ccc(C)c(NC(=O)c4ccno4)c3)cc(C(F)(F)F)c2)cn1
Solution: 100

Problem: # lookup: kinase still bound, per cent of control of C=CC(=O)Nc1ccc(C(=O)c2sc(Nc3ccc(N4CCN(C)CC4)cc3OC)nc2N)cc1
Solution: 82

====

molecular target: CDK5 (human); test: KINOMEscan competition binding; details: compound 10.0 µM
endpointLabel: kinase still bound, per cent of control (%)
Reply numerically in %, unit not repeated.

Problem: # lookup: kinase still bound, per cent of control of COc1cc(C)c(Sc2cnc(NC(=O)c3ccc(CNC(C)C(C)C)cc3)s2)cc1C(=O)N1CCN(C(C)=O)CC1 (centres undefined)
Solution: 100

Problem: # lookup: kinase still bound, per cent of control of CCc1nc(-c2cccc(C)c2)c(-c2ccnc(NC(=O)c3ccccc3)c2)s1
Solution: 100

Problem: # lookup: kinase still bound, per cent of control of CCCS(=O)(=O)Nc1ccc(F)c(C(=O)c2c[nH]c3ncc(Cl)cc23)c1F
Solution: 57

Problem: # lookup: kinase still bound, per cent of control of O=c1[nH]c2ccccc2n1C1CCN(Cc2ccc(-c3nc4cc5[nH]cnc5cc4nc3-c3ccccc3)cc2)CC1
Solution: 100

====

biological target: MAPK7 (human) (UniProt Q13164); assay: KINOMEscan competition binding; conditions: compound 10.0 µM
Sequence (Q13164 whole entry, looked up): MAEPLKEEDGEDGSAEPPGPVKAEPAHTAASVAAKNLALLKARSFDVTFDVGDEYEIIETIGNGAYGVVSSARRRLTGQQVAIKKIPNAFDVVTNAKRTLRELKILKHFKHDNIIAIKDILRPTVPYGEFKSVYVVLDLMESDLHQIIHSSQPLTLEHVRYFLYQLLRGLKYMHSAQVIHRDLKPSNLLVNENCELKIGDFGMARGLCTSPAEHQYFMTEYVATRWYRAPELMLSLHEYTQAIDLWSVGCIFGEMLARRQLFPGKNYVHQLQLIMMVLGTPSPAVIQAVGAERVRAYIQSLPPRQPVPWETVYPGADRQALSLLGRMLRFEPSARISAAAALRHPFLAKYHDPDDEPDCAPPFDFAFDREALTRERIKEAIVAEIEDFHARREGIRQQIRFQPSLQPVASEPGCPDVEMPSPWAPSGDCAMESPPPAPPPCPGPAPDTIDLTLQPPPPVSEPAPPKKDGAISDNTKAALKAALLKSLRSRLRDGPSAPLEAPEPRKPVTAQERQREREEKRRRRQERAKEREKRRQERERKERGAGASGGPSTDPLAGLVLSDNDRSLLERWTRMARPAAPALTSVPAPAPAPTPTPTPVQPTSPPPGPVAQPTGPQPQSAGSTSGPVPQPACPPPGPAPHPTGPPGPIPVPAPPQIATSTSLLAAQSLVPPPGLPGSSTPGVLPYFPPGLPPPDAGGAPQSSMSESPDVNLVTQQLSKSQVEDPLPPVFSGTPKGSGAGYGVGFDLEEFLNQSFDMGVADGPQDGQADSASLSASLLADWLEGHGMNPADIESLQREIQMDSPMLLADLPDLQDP
Returns: string. Value is yes (1) if measured kinase still bound, per cent of control is below 80%, and no (0) if it is greater than or equal to it.

Problem: Is it true that kinase still bound, per cent of control reported for COc1cc(N2CCC(C(N)=O)CC2)ccc1Nc1nc(N)c(Cl)c(Nc2ccccc2S(=O)(=O)C(C)C)n1 is less than 80%?
Solution: no (0)

Problem: Is it true that kinase still bound, per cent of control reported for N#Cc1cc(-c2ccnc(Nc3ccc(-n4cnc(-c5cccnc5)n4)cc3)n2)cc(N2CCOCC2)c1 is less than 80%?
Solution: no (0)

Problem: Is it true that kinase still bound, per cent of control reported for N#C/C(=C1/Nc2ccccc2S1)c1ccnc(NCCc2cccnc2)n1 is less than 80%?
Solution: no (0)

Problem: Is it true that kinase still bound, per cent of control reported for COc1cc(C)c(Sc2cnc(NC(=O)c3ccc(CNC(C)C(C)C)cc3)s2)cc1C(=O)N1CCN(C(C)=O)CC1 (centres undefined) is less than 80%?
Solution: no (0)

Problem: Is it true that kinase still bound, per cent of control reported for CNC(=O)Nc1ccc(-c2nc(N3CC4CCC(C3)O4)c3cnn(C4CCC5(CC4)OCCO5)c3n2)cc1 is less than 80%?
Solution: no (0)

Problem: Is it true that kinase still bound, per cent of control reported for CCOc1cc(N2CCC(O)CC2)ccc1Nc1ncc2c(n1)N(C)c1ccccc1C(=O)N2C is less than 80%?
Solution: yes (1)

Problem: Is it true that kinase still bound, per cent of control reported for C=CC(=O)Nc1ccc(C(=O)c2sc(Nc3ccc(N4CCN(C)CC4)cc3OC)nc2N)cc1 is less than 80%?
Solution: yes (1)

Problem: Is it true that kinase still bound, per cent of control reported for CCN1CCN(Cc2ccc(NC(=O)c3ccc(C)c(/C=C/c4cnc5[nH]ccc5c4OC)c3)cc2C(F)(F)F)CC1 is less than 80%?
Solution: yes (1)
